target: Sentrin-specific protease 7 (Homo sapiens) (UniProt Q9BQF6); test: SENP7 protease inhibitors, primary screen, biochemical, luminescence, uHTS (AID 434973); settings: recombinant SENP7, Z-RLRGG-aminoluciferin luminescence, 40 min; at 5 µM
About 4,900 (1.5%) of roughly 330,000 compounds were called active.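 Rule for the calls: active = inhibition above about 50% at the single test dose (limit read from the data); inactive = the rest.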 This excerpt belongs to a sample that is enriched for actives.
Select the matching outcome among active, inactive

Record excerpt, results attached:
> print(dat)
                                    compound  class.label
 1  CCOc1ccc(C(=O)COC(=O)c2ccc(-n3cnnn3)cc2)cc1     inactive
 2  CCCS(=O)(=O)N1CCCC(C(=O)NCCN2CCCCC2C)C1 (configuration not stated)     inactive
 3  CCn1ccnc1CN(C)C(=O)c1cc(COc2ccc(Cl)cc2OC)on1     inactive
 4  COC(=O)[C@]1(Cc2ccccc2)N[C@H](CN(C)S(=O)(=O)c2ccc(F)cc2)[C@@H]2C(=O)N(Cc3ccccc3)C(=O)[C@@H]21     inactive
 5           Fc1ccccc1-c1cc2cc3c(cc2cn1)OCO3       active
 6       CCN(CC)S(=O)(=O)c1ccc(OC(C)C)c(N)c1     inactive
 7     Cn1nc(-c2ccccc2)c(CSc2cccc(Cl)c2)c1Cl     inactive
 8  CCN(C(=O)COC(=O)c1c(C)nn(-c2ccccc2)c1Cl)c1c(N)n(Cc2ccccc2)c(=O)[nH]c1=O     inactive
 9  O=C(c1ccco1)N1CCN(C(=O)c2cc(-c3ccccc3F)no2)CC1     inactive
10  COc1cccc(NCCC(=O)c2cccc([N+](=O)[O-])c2)c1     inactive

Which outcome did this test record for the compound `C/C(=N\Nc1ncc(Cl)cc1Cl)c1cccs1` ?
inactive

Which outcome did this test record for the compound `C=CCOc1ccc(/C=C2\SC(=S)N(CCC(=O)O)C2=O)cc1` ?
active

Which outcome did this test record for the compound O=C1Nc2cc(C(=O)N3CCN(c4ccc(F)cc4)CC3)ccc2NC1CSCc1cccc(F)c1 (configuration not stated) ?
inactive

Which outcome did this test record for the compound `C/C(=N\Nc1nc2ccccc2[nH]1)c1cccs1` ?
active

Which outcome did this test record for the compound `COc1ccc(/C=C2\SC(=S)N(CCC(=O)Nc3cccc(C(=O)O)c3)C2=O)cc1OC` ?
inactive

Which outcome did this test record for the compound `COC(=O)c1ccc(NC(=O)CSc2nnc(Cc3cccn3C)n2-c2ccc(F)cc2)cc1` ?
inactive

Which outcome did this test record for the compound `COc1ccc(/C=C2\SC(=S)N(CC(=O)NNC(=O)c3ccncc3)C2=O)cc1` ?
inactive

Data origin, for the record: PubChem BioAssay AID434973
